experiment: Partition coefficient (LogD), octanol/PBS shake flask method; assay type: physicochemical; details: octanol / phosphate buffer pH 7.4, shake flask, radioactivity counted by gamma-counter; read-out: LogD (observed)
measured.parameter: logD

# compound, assay.result
records = [
    ("CC(C)(CNC(=O)c1cccc(-c2noc(C(F)(F)[18F])n2)c1)c1coc(-c2ccccc2)n1 [[^18F]TMP195]", "> 6"),
]
